The entries below come with measured pIC50 values attached.
molecular target: mushroom tyrosinase (Agaricus bisporus, UniProt C7FF04); test: biochemical
Sequence (C7FF04 1-392 limits assumed): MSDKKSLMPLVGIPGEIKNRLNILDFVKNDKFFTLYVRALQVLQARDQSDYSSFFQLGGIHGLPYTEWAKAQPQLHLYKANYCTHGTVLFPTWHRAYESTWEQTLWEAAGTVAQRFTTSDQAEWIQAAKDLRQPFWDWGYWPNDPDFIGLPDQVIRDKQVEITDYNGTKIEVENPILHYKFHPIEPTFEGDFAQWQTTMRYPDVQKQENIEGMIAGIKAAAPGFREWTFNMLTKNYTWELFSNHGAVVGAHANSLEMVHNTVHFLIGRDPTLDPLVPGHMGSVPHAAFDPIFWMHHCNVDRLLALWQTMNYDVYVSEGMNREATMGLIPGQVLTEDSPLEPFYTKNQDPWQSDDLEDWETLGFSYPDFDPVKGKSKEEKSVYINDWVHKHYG
pIC50: −log10 of the molar value.

The examples below pair each entry with its known result.
[[record]]
compound = "Cc1cccc(C(=O)Nc2nnc(SCc3cn(Cc4cc(=O)c(O)co4)nn3)s2)c1 [Compound 6c]"
observed_result = "< 3.70"

[[record]]
compound = "Cc1ccc(C(=O)Nc2nnc(SCc3cn(Cc4cc(=O)c(O)co4)nn3)s2)cc1 [Compound 6d]"
observed_result = "< 3.70"


Ask: Find the recorded pIC50 belonging to Cc1ccccc1C(=O)Nc1nnc(SCc2cn(Cc3cc(=O)c(O)co3)nn2)s1 [Compound 6b] and report it.
Result: < 3.70
